Data provenance is ChEMBL document CHEMBL4296182.

# Tested on: Staphylococcus aureus
# ASSAY_SUMMARY: Antibacterial activity against Staphylococcus aureus MRSA ATCC 43300 (CO-ADD:GP_020); MIC in CAMBH media using NBS plates, by Resazurin F(560/590)
# Assay type: functional
# CONDITION_NOTES: Concentration 20 uM, ASSAY_TEST Inhibition of Bacterial Growth, detection method Resazurin, Fluorescence (ex560/em590), MEDIA CAMHB, plate type 384well, CORNING #3640, time 18 hr
Quick list: Inhibition per entry.

Answered examples (5):
Exercise: // Inhibition lookup, key: C=C1C/C(=C/C)C(=O)O[C@@H]2CCN3CC=C(COC(=O)[C@]1(C)O)[C@H]23 [SENECIPHYLLINE]
Key: 11.97%

Exercise: // Inhibition lookup, key: C[C@H]1[C@H](C)N1CC(O)Cn1ccnc1[N+](=O)[O-] (stereo partly drawn)
Key: 3.93%

Exercise: // Inhibition lookup, key: O=C(NC(=O)c1c(F)cccc1F)Nc1cc(Cl)c(F)c(Cl)c1F [TEFLUBENZURON]
Key: 1.58%

Exercise: // Inhibition lookup, key: CCCCOP(=O)(OCCCC)C1(C)CC(=O)CC(C)(C)C1 (stereo not drawn)
Key: 5.73%

Exercise: // Inhibition lookup, key: `C[C@H]1CC[C@@]2(C)[C@@H](CC[C@@H]3[C@@H]2CC[C@]2(C)[C@@H](O)CC[C@@H]32)C1`
Key: 19.61%

Others:
Exercise: // Inhibition lookup, key: CC[C@@]1(O)C(=O)OCc2c1cc1n(c2=O)Cc2cc3c(N)cccc3nc2-1 [9-AMINOCAMPTOTHECIN]
Key: 34.7%

Exercise: // Inhibition lookup, key: `C/C=C(/C)C(=O)O[C@H]1CCN2CC=C(COC(=O)[C@@](O)([C@H](C)OC)C(C)(C)O)[C@H]12`
Key: 10.77%

Exercise: // Inhibition lookup, key: c1cc(C2N3CCCN2CC3)ccn1 (stereo not drawn)
Key: 15.5%

Exercise: // Inhibition lookup, key: CN1C2CCC1[C@@H](COC(=O)c1ccccc1)[C@@H](O)C2 (stereo partly drawn)
Key: 0.35%

Exercise: // Inhibition lookup, key: `CN1CCN(c2nc(N)cc(O)n2)CC1`
Key: -8.8%

Exercise: // Inhibition lookup, key: `CC1(C)NC(=S)C(C)(C)N1N=O`
Key: 8.42%

Exercise: // Inhibition lookup, key: `Cc1nccc2c1[nH]c1cc(O)ccc12`
Key: 18.39%

Exercise: // Inhibition lookup, key: `CCOP(=O)(OCC)/C(C#N)=C/c1ccc(Br)cc1`
Key: 9.27%

----------
# Tested on: Klebsiella pneumoniae
# CONDITION_NOTES: Concentration 20 uM; ASSAY_TEST Inhibition of Bacterial Growth; detection method Absorption (OD600); MEDIA CAMHB; plate type 384well; NBS; CORNING #3640; time 18 hr
# Description: Antibacterial activity against Klebsiella pneumoniae MDR ATCC 70063 (CO-ADD:GN_003); MIC in CAMBH media using NBS plates, by OD(600)
Results with a measured potency or affinity are listed apart.
READOUT_NAME: Inhibition
Give the number first and the unit second.

Answered examples (3):
Exercise: // Inhibition lookup, key: `O=P(OC1=CCCCC1)(c1ccccc1)c1ccccc1`
Key: 9.43%

Exercise: // Inhibition lookup, key: `O=C(NC(=O)c1c(F)cccc1F)Nc1cc(Cl)c(F)c(Cl)c1F`
Key: 2.21%

Exercise: // Inhibition lookup, key: CC12CCC3C(CCC4Cc5[nH]c6ccccc6c5CC43C)C1CCC2O (stereo not given)
Key: 10.81%

Others:
Exercise: // Inhibition lookup, key: `Cc1ccc2cc3c(ccc4ccccc43)c3c2c1CC3`
Key: -1.21%

Exercise: // Inhibition lookup, key: CC(C)CC(NC=O)C(=O)O.COc1cc2c(cc1OC)C13CCN4CC5=CCOC6CC(=O)N2C1C6C5CC43 (stereo not given)
Key: 12.71%
